System: NCI-H226 lung
Assay: NCI-60 one-dose screen, 48 h (100 = growth as untreated, 0 = no growth, -100 = all killed)
Settings: 10 µM
Procedure: Growth inhibition of the NCI-H226 human Non-Small Cell Lung tumor cell line is measured as a screen for anti-cancer activity. Cells are grown in 96 well plates and exposed to the test compound for 48 hours. Compounds are tested at a single concentration, which is 10^-5 M for most compounds. The reported endpoint is percent growth (GI% or GIPRCNT), where numbers from 0 - 100% represent growth inhibition, and numbers from -100% - 0 represent cell death. […]
This is part of a sample that, as a whole, favours compounds with a hit. Of some 83,000 tested, about 20% had one in any assay.
Quick rule for you: growth at 80% or higher means satisfied, lower means not satisfied.

Incoming: Would you say O=C(NCCCCCCCCCC[P+](c1ccccc1)(c1ccccc1)c1ccccc1)c1ccc(-n2nc(-c3ccccc3O)nc2-c2ccccc2O)cc1 shows growth at minimum 80%?
Outgoing: not satisfied

Incoming: Would you say O=C1Nc2cc(-c3ccc(NC(=O)c4cccc([N+](=O)[O-])c4)cc3)ccc2/C1=C/c1ccc[nH]1 shows growth at minimum 80%?
Outgoing: not satisfied

Incoming: Would you say CCCSc1nc(NC2CC2)c(C#N)c(-c2ccc(OC)cc2)n1 shows growth at minimum 80%?
Outgoing: satisfied

Incoming: Would you say Cc1cccc(NC(=O)CSc2nc3ccc(F)cc3c(=O)n2-c2ccc(Cl)cc2)c1C shows growth at minimum 80%?
Outgoing: not satisfied

Incoming: Would you say CC(=O)c1cc(C(=O)N2c3ccccc3Sc3ccccc32)n2ccc(C)cc12 shows growth at minimum 80%?
Outgoing: not satisfied

---

Tested on: NCI-H226 lung
Test: NCI-60 one-dose screen, 48 h
Details: 10 µM
The panel holds about 83,000 compounds, 20% with a hit somewhere; the sample as a whole holds those more often. The source made the active and inactive calls. The calls were made as follows: active = growth percent below 10; inactive = the rest.
Lab note: assign the record to one of yes (1) (active), no (0) (inactive)

N#Cc1ccc(-c2nn(-c3ccc(C(=O)O)cc3)cc2CNc2ccc(Oc3ccccc3)cc2)cc1	no (0)

Incoming: Call for entry O=c1[nH]c2ccccc2cc1CSc1ccc(Nc2nccc(-c3ccc(Cl)cc3)n2)cc1 :
Outgoing: yes (1)

---

Tested on: OVCAR-8 ovarian
Assay: NCI-60 one-dose screen, 48 h
Details: 10 µM
Compounds without any hit were thinned out: in the full panel of roughly 83,000, 20% have a hit. Active and inactive are the calls of the source. How the source made its calls: active means growth percent below 10; inactive means the rest.
Lab note: assign the record to one of active, inactive

Would you please look over these solved cases?
CC(=O)Nc1ccc(-n2cnc3cc(-c4ccc(O)cc4)ccc32)cc1C	inactive
O=C(CNc1nc(-c2ccccc2)cs1)Nc1ccc(Cl)cc1[N+](=O)[O-]	inactive
Cc1cc(C)nc(SCC(=O)Nc2ccc(S(N)(=O)=O)cc2)n1	inactive

Incoming: Call for entry O=C(CSc1nnc(-c2c[nH]c3ccccc23)n1-c1ccccc1)c1ccc(Cl)cc1 :
Outgoing: inactive

Incoming: Call for entry CCOC(=O)C1=C(N)N(c2ccccc2)C2=C(C(=O)CC(C)(C)C2)C1c1ccccc1OC (configuration not stated) :
Outgoing: inactive

Incoming: Call for entry CC(=O)Nc1nc(-c2ccc(N3CCN(C)CC3)c(NS(=O)(=O)c3cccc4c(N(C)C)cccc34)c2)cs1 :
Outgoing: inactive

Incoming: Call for entry COc1ccc(-c2nc(S(=O)(=O)c3ccc(C)cc3)c(S(C)(=O)=O)o2)cc1 :
Outgoing: active

Incoming: Call for entry Cc1noc2c(Cc3ccccc3)nn(CC(=O)N/N=C/c3ccc(Cl)cc3)c(=O)c12 :
Outgoing: active

Incoming: Call for entry COc1cccc(/C=C2\N=C(C)N(CCc3ccc(S(N)(=O)=O)cc3)C2=O)c1 :
Outgoing: inactive

Incoming: Call for entry CN(CCF)c1ccc(/C=C/C(=O)c2ccc(N)cc2O)cc1 :
Outgoing: inactive

Incoming: Call for entry CN1CCN(c2ccc(C(=O)/C=C/c3cc(Br)ccc3F)cc2)CC1 :
Outgoing: inactive

Incoming: Call for entry COc1cccc(COc2ccc(/C=C3\Oc4cc(O)ccc4C3=O)cc2)c1 :
Outgoing: inactive

The measurements presented in this section are drawn from PubChem BioAssay (NCI).
